testSystem: Chromo domain-containing protein 1 (Saccharomyces cerevisiae (strain ATCC 204508 / S288c) (Baker's yeast))
protocolNotes: ScCHD-1 Enzyme Inhibition Assay; also: in the data most compounds retested in dose-response had high values
Assay type: functional
Set-up: scale not given: direction of the effect not stated beside the values
testParameters: 30 µM
For each of the compounds below, state its Percent Effect.
Give bare numbers, in %.

# count of solved cases: 3
INSERT INTO assay_data (compound, reportedvalue) VALUES
  ('O=C(c1ccncn1)N1CCO[C@H]2[C@@H](OCc3cccnc3)CC[C@@H]21', -6.65),
  ('N#Cc1ccccc1OCCN1CCCCC1Cn1cncn1 (centres undefined)', -11.1),
  ('Cc1nccc([C@@H]2C[C@@H]3CCN(S(C)(=O)=O)C[C@H]3O2)n1', -3.19);

Now consider a different compound.
Input O=C1CC2(CCN(c3nncs3)C2)CN1c1ccccc1 (centres undefined) . Output Percent Effect: 0.436

###

testSystem: AMP-activated protein kinase, AMPK (Homo sapiens) (UniProt P54646+O43741+P54619+Q9UGJ0+Q9Y478+Q13131+Q9UGI9)
protocolNotes: AMP-dependent Kinase enzyme assay. An in vitro enzyme assay that detects ADP turnover that is directly proportional to AMPK activity. This uses naive AMPK that is activated during the assay with MK-8722
Type: functional
Design: scale not given: direction of the effect not stated beside the values
testParameters: 30 µM
Consider the following molecules; for each one, report its Percent Effect.
One number for each entry, in %.

Example entries begin here.
INSERT INTO assay_data (molecule, reportedvalue) VALUES
  ('O=C(c1ccccn1)N1CCCC(c2nccn2Cc2ccncc2)C1 (configuration not stated)', -0.242),
  ('CC(C)(C)c1ccc(C2(C(=O)NCCS(N)(=O)=O)CC2)cc1', 1.16),
  ('COCc1ccccc1C(=O)NCCCN1CCCC1C(=O)N(C)C (configuration not stated)', -7.48),
  ('Cc1cc(NC(=O)CN2CCn3c(nnc3C(C)C)C2)no1', 2.84),
  ('COc1ccc(C(=O)N2CCCCC2c2nc(C)cs2)nn1 (configuration not stated)', -3.01),
  ('CCCNC(=O)c1sccc1N(C)S(=O)(=O)c1ccc(Cl)cc1', -1.42),
  ('O=C(c1cccnc1)N1CCc2ncnc(C3CCOC3)c2CC1 (configuration not stated)', 5.98),
  ('Cc1noc2ncc(C(=O)N(CC3CCOC3)C3CC3)cc12 (configuration not stated)', -3.99);

Provide Percent Effect for all items below, preserving their order.
1. CC(C)c1n[nH]c(C2CN(C(=O)C3=COCC3)CCO2)n1 (configuration not stated)
2. CCOc1nc2cccnc2n(CC(=O)NCCOC)c1=O
3. C=C(C)COCCNC(=O)C1CCCN1C(C)=O (configuration not stated)
4. CCc1noc(C(C)N2CCC(NC(=O)c3ccc(C)s3)CC2)n1 (configuration not stated)

1. 1.65
2. 3.02
3. -0.215
4. 2.15

Give measured Percent Effect for every item shown.
1. COc1cccc(-n2c(C)cc(C(=O)NS(C)(=O)=O)c2C)c1
2. CN(C)CC1CSCCCN1C(=O)c1ccc(=O)[nH]c1 (configuration not stated)
3. COc1nn(C)cc1C(=O)N1CCC(c2nnc(C3CC3)o2)CC1
4. CC1COCCN1Cc1nc(-c2cccs2)no1 (configuration not stated)

1. -2.25
2. 6.1
3. 4.71
4. 138

The recorded Percent Effect for `O=C(c1ccc(Cl)o1)N1CCCN(Cc2cscn2)CC1` is -7.43

###

Organism: Homo sapiens
protocolNotes: To identify inhibition of the IFN signalling (Jak-Stat) pathway via expression of an eGFP reporter gene under the control of an IFN-stimulated response element (ISRE) containing MxA promoter.
Type: functional
Set-up: scale not given: direction of the effect not stated beside the values
testParameters: 30 µM
Record form. Attribute: Percent Effect. Fill in for each entry.
In your response, the unit should come after the numeric value.

Here's what some known entries look like.
INSERT INTO measurements (compound, observationtype, reportedvalue) VALUES
  ('Brc1cc2c(cc1CN1CCC(N3CCCCC3)CC1)OCCO2', 'Percent Effect', '2.68%'),
  ('CCn1nc(CC(C)C)cc1C(=O)N1C[C@H](O)[C@@H](N2CCCCC2)C1', 'Percent Effect', '-6.25%'),
  ('CC(=O)N1CCC(C(=O)N(C)[C@@H]2CCC[C@@H](N3CCCC3)[C@@H]2O)CC1', 'Percent Effect', '13.2%'),
  ('CCc1ccc(S(=O)(=O)Nc2c(C)cccc2C(=O)O)s1', 'Percent Effect', '-1.38%'),
  ('Cc1nc(C2CCCN(C(=O)c3cc(Cl)c[nH]3)C2)no1 (stereo not drawn)', 'Percent Effect', '-5.6%');

# batch: return Percent Effect for each of the 2 compounds below
1. CC(C)c1ccc(OCn2ccc(C(=O)N3CCCC3)n2)cc1
2. CSCCCN1CCCC1c1noc(C)n1 (stereo not drawn)

1. 52.2%
2. 19.4%

The recorded Percent Effect for entry COCCCN1CCCN(C(C)C(=O)Nc2cccc(I)c2)CC1 (stereo not drawn) equals -8.39%

###

I'd be grateful if you could share measured Percent Effect for these entries.
testSystem: Chromo domain-containing protein 1 (Saccharomyces cerevisiae (strain ATCC 204508 / S288c) (Baker's yeast)) (UniProt P32657)
Sequence (P32657 whole entry, the tested form may be a part): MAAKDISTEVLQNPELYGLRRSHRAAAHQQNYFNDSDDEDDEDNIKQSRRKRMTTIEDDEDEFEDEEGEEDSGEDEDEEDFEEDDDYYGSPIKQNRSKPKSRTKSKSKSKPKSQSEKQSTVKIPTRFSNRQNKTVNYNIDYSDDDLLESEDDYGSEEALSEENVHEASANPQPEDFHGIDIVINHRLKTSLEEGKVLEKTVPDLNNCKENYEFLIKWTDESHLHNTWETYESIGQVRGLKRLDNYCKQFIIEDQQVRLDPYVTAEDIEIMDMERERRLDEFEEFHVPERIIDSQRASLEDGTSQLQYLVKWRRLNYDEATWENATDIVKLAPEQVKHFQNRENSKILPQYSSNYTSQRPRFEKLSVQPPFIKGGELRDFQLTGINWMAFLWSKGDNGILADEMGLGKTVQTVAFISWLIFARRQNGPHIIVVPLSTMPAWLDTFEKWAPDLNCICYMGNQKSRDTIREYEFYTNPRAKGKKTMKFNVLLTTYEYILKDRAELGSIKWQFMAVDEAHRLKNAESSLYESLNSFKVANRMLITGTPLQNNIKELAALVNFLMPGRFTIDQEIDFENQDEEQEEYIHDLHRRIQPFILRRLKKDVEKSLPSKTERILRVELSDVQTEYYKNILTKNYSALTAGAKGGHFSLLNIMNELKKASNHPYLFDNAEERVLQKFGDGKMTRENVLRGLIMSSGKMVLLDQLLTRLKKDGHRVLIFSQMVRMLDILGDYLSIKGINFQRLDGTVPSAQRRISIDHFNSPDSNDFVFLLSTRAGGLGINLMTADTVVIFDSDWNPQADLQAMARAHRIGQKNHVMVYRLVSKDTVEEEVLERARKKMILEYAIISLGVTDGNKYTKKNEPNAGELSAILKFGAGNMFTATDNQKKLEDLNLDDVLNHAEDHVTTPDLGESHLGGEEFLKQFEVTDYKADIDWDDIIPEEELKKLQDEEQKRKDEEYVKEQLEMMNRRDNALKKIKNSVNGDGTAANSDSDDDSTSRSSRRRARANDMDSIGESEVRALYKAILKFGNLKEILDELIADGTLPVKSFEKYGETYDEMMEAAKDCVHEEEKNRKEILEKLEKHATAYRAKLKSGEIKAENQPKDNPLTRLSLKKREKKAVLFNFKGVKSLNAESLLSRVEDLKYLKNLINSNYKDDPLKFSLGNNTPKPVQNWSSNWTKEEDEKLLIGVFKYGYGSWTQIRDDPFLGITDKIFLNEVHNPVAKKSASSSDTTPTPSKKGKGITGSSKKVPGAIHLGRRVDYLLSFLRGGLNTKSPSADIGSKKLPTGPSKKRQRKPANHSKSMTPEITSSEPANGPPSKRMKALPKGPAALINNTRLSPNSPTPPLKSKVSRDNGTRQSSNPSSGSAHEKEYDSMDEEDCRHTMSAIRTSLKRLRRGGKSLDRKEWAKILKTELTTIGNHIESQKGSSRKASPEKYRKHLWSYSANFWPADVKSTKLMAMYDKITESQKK
protocolNotes: ScCHD-1 Enzyme Inhibition Assay; also: in the data most compounds retested in dose-response had high values
Assay type: functional
Parameters: scale not given: direction of the effect not stated beside the values
testParameters: 30 µM
One number for each entry, in %.

Worked cases, answers included:
INSERT INTO results (molecule, reportedvalue) VALUES
  ('N#Cc1ccccc1CN1C[C@@H]2CC[C@H](C1)N(Cc1cscn1)C2=O', -3.95),
  ('COc1ccc(OCc2nc(C(=O)N3CC(O)C3)co2)cc1', -0.668),
  ('COc1ccc(CCN2CCc3c(nc(C4CC4)n3C)C2)cc1', -7.4),
  ('Cc1nc(C)n(CC2CCCN2Cc2cc(C)on2)n1 (centres undefined)', -23.5),
  ('O=C(NCCN1CCC(c2cccs2)CC1)c1ccccc1C(F)(F)F', -4.65);

The following molecules each have a reported value; give each one's Percent Effect.
1. Cc1cc(NC(=O)CN2CCc3nn(C)c(=O)cc3C2)on1
2. O=C(Cc1cccc(Cl)c1)N[C@@H]1CCNC[C@H]1O
3. CC1CN(C)c2ccccc2CN1C(=O)c1ccncc1 (centres undefined)
4. Cc1cc(C)cc(C2(C(=O)NC(C)Cn3ccnc3)CC2)c1 (centres undefined)
5. CCCNC(=O)c1c(-n2cnnn2)sc2c1CCC2

1. -4.24
2. -13.7
3. -3
4. -10.8
5. -5.31

Below is a list of molecules. For each, state its recorded Percent Effect.
1. CC(=O)Nc1nc(C2CCN(C(C)=O)CC2)cs1
2. CC(C)c1ncncc1C(=O)N1CCN(Cc2cscn2)CC1

[-3.5, -8.1]

Items follow; give Percent Effect for each.
1. Cc1ccccc1-c1cncc(C2CCN(C)CC2)n1
2. Cc1cc(C(=O)N2C[C@@H]3COC[C@]3(c3nnc(C4CC4)o3)C2)on1

-11.8
-9

###

testSystem: Tyrosyl-tRNA synthetase, putative (Trypanosoma cruzi (strain CL Brener)) (UniProt Q4DSP6)
Sequence (Q4DSP6 as listed by the source): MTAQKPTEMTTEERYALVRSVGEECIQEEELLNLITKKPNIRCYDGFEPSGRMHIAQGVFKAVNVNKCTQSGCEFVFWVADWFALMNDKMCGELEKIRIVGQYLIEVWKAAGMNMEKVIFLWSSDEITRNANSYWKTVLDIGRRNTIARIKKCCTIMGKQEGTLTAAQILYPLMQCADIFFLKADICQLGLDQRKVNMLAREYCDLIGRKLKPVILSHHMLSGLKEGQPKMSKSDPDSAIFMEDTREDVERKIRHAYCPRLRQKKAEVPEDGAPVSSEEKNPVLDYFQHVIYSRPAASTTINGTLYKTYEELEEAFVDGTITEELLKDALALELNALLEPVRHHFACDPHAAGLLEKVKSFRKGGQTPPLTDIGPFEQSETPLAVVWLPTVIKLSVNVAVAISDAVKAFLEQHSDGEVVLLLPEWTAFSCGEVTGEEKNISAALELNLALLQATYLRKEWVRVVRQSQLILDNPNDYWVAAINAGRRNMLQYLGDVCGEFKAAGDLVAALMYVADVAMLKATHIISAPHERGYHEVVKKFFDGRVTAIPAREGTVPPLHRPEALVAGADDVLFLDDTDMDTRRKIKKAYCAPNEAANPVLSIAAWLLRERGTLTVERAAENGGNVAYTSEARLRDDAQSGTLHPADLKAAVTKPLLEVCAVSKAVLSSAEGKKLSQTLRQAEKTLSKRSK
protocolNotes: Trypanosoma cruzi tyrosyl tRNA synthetase (TcYRS) _High Tyrosine SOP; also: in the data most compounds retested in dose-response had high values
Assay type: functional
Set-up: scale not given: direction of the effect not stated beside the values
testParameters: 30 µM
observationType: Percent Effect
Include the unit right after the number.

Below, 8 molecules whose answers are already recorded.
INSERT INTO assay_data (molecule, reportedvalue) VALUES
  ('O=C(CCc1ccsc1)N1CCC(Cc2ccc(CO)cc2)C1 (stereo not drawn)', '3.16%'),
  ('COc1ncccc1C(=O)NCC1Cc2ccccc2O1 (stereo not drawn)', '4.3%'),
  ('CN(Cc1ccsc1)C(=O)c1cccc(S(=O)(=O)NC(C)(C)C)c1', '6.8%'),
  ('Cn1ccc(CN2CCC(CCc3ccc(O)cc3)CC2)cc1=O', '0%'),
  ('CCOCC(O)CN1CCN(C(=O)CC(C)C)CC1 (stereo not drawn)', '2.46%'),
  ('Cc1cnc(NC(=O)N2CCCC2)s1', '1.07%'),
  ('CCc1ccc(CNC(=O)NC(C)CN2CCOCC2)s1 (stereo not drawn)', '-12.8%'),
  ('O=C(c1ccoc1)N1CC[C@@H]2O[C@H](COCc3ccccn3)CC[C@@H]21', '2.16%');

Count: 6. Required value per item: Percent Effect.
1. Cc1ncnc2c1CCN(c1cc(C(F)(F)F)ncn1)CC2
2. CC(C(N)=O)N(C)CCCc1cc(-c2ccccc2)no1 (stereo not drawn)
3. c1sc(C2CCCC2)nc1CN1CCn2c(nnc2C2CC2)C1
4. Cc1nccc([C@@H]2C[C@@H]3CCN(S(C)(=O)=O)C[C@H]3O2)n1
5. O=C(c1cccc(Cl)c1)N1CCCn2c(CN3CCCCC3)nnc2C1
6. CCc1nc(CN2CCCC(NCc3nnc(C4CC4)o3)C2)no1 (stereo not drawn)

["0%", "5.94%", "10.9%", "8.6%", "4.25%", "11.4%"]

Hi! Can you tell me Percent Effect for each of these molecules?
1. COc1ccc(CNC(=O)CNc2cc3c(cc2Cl)OCCCO3)cc1
2. CC(C)c1cnc(CNc2c(F)cccc2-n2cccn2)o1
3. CN(C)CC1CN(Cc2cccc(C(=O)N(C)C)c2)CCO1 (stereo not drawn)
4. CC(C)c1nnc2ccc(N3CCC(C(=O)Nc4nccs4)CC3)nn12

["1.07%", "-1.05%", "10.7%", "13.8%"]

Take each entry in turn and give its Percent Effect.
1. CN(C)c1cc(CNC(=O)c2ccc(=O)[nH]n2)ccn1
2. O=C(CCc1ccc(=O)[nH]n1)N1CCCC(COc2ccc(F)cc2)C1 (stereo not drawn)
3. Cn1cnnc1S(=O)(=O)C1CCN(S(=O)(=O)c2c(Cl)cccc2Cl)CC1
4. O=C(CCc1cc(O)no1)N1CCCC(COc2ccc(F)cc2)C1 (stereo not drawn)
5. CN(C(=O)c1cc(Cl)c[nH]1)C1CCN(c2ccccn2)CC1
6. NC(=O)c1ccc2c(c1)nc1n2CCN(Cc2ccco2)C1
7. CC(C)c1nnc2n1CCN(C(=O)c1ccc(CN(C)C)cc1)C2
8. COC(=O)CS(=O)(=O)CCC(=O)N1CCCC1c1ccsc1 (stereo not drawn)

1: 9.52%; 2: 6.32%; 3: 0%; 4: 5.26%; 5: 13.3%; 6: 5.32%; 7: 0.952%; 8: 5.26%

// batch mode: one Percent Effect value per listed entry
1. CS(=O)(=O)NC1CCN(C(=O)NCCc2ccccc2F)CC1
2. CCc1nc(CN(C)C2CCN(Cc3ccc(C#N)cc3F)C2)no1 (stereo not drawn)
3. CNc1cc(C2CCCN2Cc2ccccc2C(=O)O)ccn1 (stereo not drawn)

["6.93%", "7.39%", "8.6%"]
